# experimental_protocol: log P determination by HPLC on reversed-phase columns (EEC Directive 79/831 Annex V.A8)
# Assay type: physicochemical
# experimental_context: pH 2.7
Answer each item with its documented chromatographic logP.

Each compound below has a reported value. Please supply its chromatographic logP.
1. CNC(=O)c1cc(I)cc(C)c1NC(=O)c1cc(Cn2cc(C(F)(F)C(F)(F)F)nn2)nn1-c1ncccc1Cl
2. CSC[C@H](C)NC(=O)c1cc(Cl)cc(C)c1NC(=O)c1cc(Cn2cc(C(F)(F)F)nn2)nn1-c1ncccc1Cl
3. Cc1cc(Cl)cc(C(=O)NC2CC2)c1NC(=O)c1cc(Cn2nc(C(F)(F)F)c(C(F)(F)F)n2)nn1-c1ncccc1Cl
4. Cc1cc(C#N)cc(C(=O)NC(C)(C)C)c1NC(=O)c1cc(Cn2nc(C(F)(F)F)c(C(F)(F)F)n2)nn1-c1ncccc1Cl
5. CNC(=O)c1cc(Cl)cc(C)c1NC(=O)c1cc(Cn2nc3cc(OC(F)(F)F)cc(Br)c3n2)nn1-c1ncccc1Cl
6. CNC(=O)c1cc(Cl)cc(C)c1NC(=O)c1cc(Cn2nnc3cc([N+](=O)[O-])ccc32)nn1-c1ncccc1Cl

Reply:
3.23
3.35
3.96
4.16
4.17
2.64

----------
# experimental_protocol: log P determination by HPLC on reversed-phase columns (EEC Directive 79/831 Annex V.A8)
# Type: physicochemical
# experimental_context: reversed-phase C18 HPLC column, pH 2.7; HPLC on reversed-phase columns (C 18), EEC Directive 79/831 Annex V.A8; read-out: logP
measure: chromatographic logP
Numbers only.

Examples from the recorded data:
CSC[C@H](C)NC(=O)c1cc(C#N)cc(C)c1NC(=O)c1cc(Cn2ncc(C(F)(C(F)(F)F)C(F)(F)F)n2)nn1-c1ncccc1Cl :: 4.06
CC(NC(=O)c1cc(Cl)cc(Cl)c1NC(=O)c1cc(Cn2cc(C(F)(C(F)(F)F)C(F)(F)F)nn2)nn1-c1ncccc1Cl)C1CC1 (centres unmarked) :: 4.08

Each compound below has a reported value. Please supply its chromatographic logP.
1. Cc1cc(C#N)cc(C(=O)NCC2CC2)c1NC(=O)c1cc(Cn2ncc(C(F)(C(F)(F)F)C(F)(F)F)n2)nn1-c1ncccc1Cl
2. Cc1cc(C#N)cc(C(=O)NC(C)(C)C)c1NC(=O)c1cc(Cn2nnc3c(Cl)cc(C(F)(F)F)cc32)nn1-c1ncccc1Cl
3. Cc1cc(C#N)cc(C(=O)NC(C)(C)C)c1NC(=O)c1cc(Cn2nnc3cc(Br)c(C(F)(F)F)cc32)nn1-c1ncccc1Cl

Reply:
[3.95, 3.96, 4.02]

----------
# experimental_protocol: log P determination by HPLC on reversed-phase columns (EEC Directive 79/831 Annex V.A8)
# Assay type: physicochemical
# experimental_context: pH 2.7
measure: chromatographic logP
Answers are plain numbers.

Cc1cc(Cl)cc(C(=O)NC2CC2)c1NC(=O)c1cc(Cn2ncc(C(F)(F)C(F)(F)F)n2)nn1-c1ncccc1Cl :: 3.62
CNC(=O)c1cc(C#N)cc(C)c1NC(=O)c1cc(Cn2nnc3cc([N+](=O)[O-])ccc32)nn1-c1ncccc1Cl :: 2.34

Per the record, CNC(=O)c1cc(Cl)cc(C)c1NC(=O)c1cc(Cn2nc3ccc(C(F)(F)F)cc3n2)nn1-c1ncccc1Cl has chromatographic logP of 3.48

----------
# experimental_protocol: log P determination by HPLC on reversed-phase columns (EEC Directive 79/831 Annex V.A8)
# Assay type: physicochemical
# experimental_context: pH 2.7
# Experimental: Determination by LC-MS in the acidic range takes place at a pH of 2.7 using 0.1% aqueous formic acid and acetonitrile (containing 0.1% formic acid) as eluents, with a linear gradient from 10% acetonitrile to 95% acetonitrile. Calibration was carried out using unbranched alkan-2-ones (having 3 to 16 carbon atoms) with known log P values (the log P values are determined from the retention times by linear interpolation between two successive alkanones).
measure: chromatographic logP
Answers are plain numbers.

Examples from the recorded data:
N#CCNC(=O)c1cc(Cl)cc(Cl)c1NC(=O)c1cc(Cn2cc(C(F)(F)F)nn2)nn1-c1ncccc1Cl :: 2.63
CNC(=O)c1cc(Cl)cc(C)c1NC(=O)c1cc(Cn2ncc(C(F)(C(F)(F)F)C(F)(F)F)n2)nn1-c1ncccc1Cl :: 3.76

Each molecule below has a reported value. Please supply its chromatographic logP.
1. CCNC(=O)c1cc(I)cc(C)c1NC(=O)c1cc(Cn2cc(C(F)(F)F)nn2)nn1-c1ncccc1Cl
2. CNC(=O)c1cc(Cl)cc(C)c1NC(=O)c1cc(Cn2cc(-c3ccccc3Cl)nn2)nn1-c1ncccc1Cl
3. Cc1cc(Cl)cc(C(N)=O)c1NC(=O)c1cc(Cn2ncc(C(F)(F)F)n2)nn1-c1ncccc1Cl
4. Cc1cc(F)cc(C(=O)NC(C)C2CC2)c1NC(=O)c1cc(Cn2ncc(C(F)(F)F)n2)nn1-c1ncccc1Cl (stereo not drawn)

Reply:
3.04
2.74
2.7
3.36

----------
# experimental_protocol: log P determination by HPLC on reversed-phase columns (EEC Directive 79/831 Annex V.A8)
# Type: physicochemical
# experimental_context: pH 2.7
measure: chromatographic logP
Answers are plain numbers.

CCNC(=O)c1cc(C#N)cc(C)c1NC(=O)c1cc(Cn2nc(C(F)(F)F)c(C(F)(F)F)n2)nn1-c1ncccc1Cl :: 3.61

Each compound below has a reported value. Please supply its chromatographic logP.
1. CNC(=O)c1cc(Cl)cc(C)c1NC(=O)c1cc(Cn2nnc3ccccc32)nn1-c1ncccc1Cl
2. Cc1cc(C#N)cc(C(N)=O)c1NC(=O)c1cc(Cn2cc(C(F)(F)F)nn2)nn1-c1ncccc1Cl

Reply:
2.38
2.12
